target: T1, IGSF8 (UniProt Q969P0 28-613, limits assumed)
T1 construct: whole, on cells
T1 sequence (looked up): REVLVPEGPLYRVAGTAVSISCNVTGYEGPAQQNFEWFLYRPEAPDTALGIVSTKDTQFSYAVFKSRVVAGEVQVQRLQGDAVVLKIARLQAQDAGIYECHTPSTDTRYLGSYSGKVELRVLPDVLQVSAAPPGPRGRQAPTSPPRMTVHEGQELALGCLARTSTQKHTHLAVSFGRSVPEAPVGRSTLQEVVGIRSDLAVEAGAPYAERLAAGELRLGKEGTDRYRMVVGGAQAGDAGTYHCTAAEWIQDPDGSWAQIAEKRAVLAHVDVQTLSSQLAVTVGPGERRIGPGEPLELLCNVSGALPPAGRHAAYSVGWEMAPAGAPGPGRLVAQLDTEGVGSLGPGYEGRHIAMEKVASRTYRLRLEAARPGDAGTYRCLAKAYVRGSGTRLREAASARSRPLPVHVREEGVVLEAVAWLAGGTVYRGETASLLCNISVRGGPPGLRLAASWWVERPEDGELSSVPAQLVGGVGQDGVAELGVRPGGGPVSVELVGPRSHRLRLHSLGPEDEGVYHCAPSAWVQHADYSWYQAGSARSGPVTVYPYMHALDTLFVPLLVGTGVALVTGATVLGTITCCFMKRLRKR
assay.explanation: flow cytometry on cells transfected with the target; signal over mock-transfected cells (background = 1.0)
outcome.measure: S:B Binding

Prompt: Sample Antibody of light chain E1 (E1chicken) paired with the heavy chain against IGSF8 (antibody, V domains shown, also called HC-IGSF8) VH: AVTLDESGGGLQTPGGGLSLVCKASGFSISSYEMQWVRQAPGKGLEWVAGIDDDGSSRAYAPAVKGRATISRDNGQSTVRLQLNNLRAEDTGTYYCAKTIYAATLNAGEIDAWGHGTEVIVSS VL: ALTQPSSVSANPGETVKITCSGSSGSGYYGWYQQKSPGSAPVTLIYDNDKRPSDIPSRFSGSKSGSTGTLTITGVQADDEAVYFCGSADNNYTGIFGAGTTLTVL — what was its S:B Binding?
Completion: 18.1 S:B

Prompt: Record: Antibody of common light chain C11 (C11chicken) paired with the heavy chain against IGSF8 (antibody, V domains shown, also called HC-IGSF8) VH: AVTLDESGGGLQTPGGGLSLVCKASGFSISSYEMQWVRQAPGKGLEWVAGIDDDGSSRAYAPAVKGRATISRDNGQSTVRLQLNNLRAEDTGTYYCAKTIYAATLNAGEIDAWGHGTEVIVSS VL: ALTQPSSVSANPGETVKITCSGGGSWYGSYYYGWYQQKSPGSAPVTLIYNNDKRPSDIPSRFSGSESGSTATLTITGVQAEDEAVYFCGGYDSTTTDMFGAGTTLTVL
Completion: 5.5 S:B

Prompt: Record: Antibody of common light chain B9 (B9chicken) paired with the heavy chain against IGSF8 (antibody, V domains shown, also called HC-IGSF8) VH: AVTLDESGGGLQTPGGGLSLVCKASGFSISSYEMQWVRQAPGKGLEWVAGIDDDGSSRAYAPAVKGRATISRDNGQSTVRLQLNNLRAEDTGTYYCAKTIYAATLNAGEIDAWGHGTEVIVSS VL: ALTQPSSVSANPGETVKITCSGGGSSNYYGWYQQKSPGSAPVTLIYGTNKRPSDIPSRFSGSKSGSTGTLTITGVQADDEAVYFCGSADSSTNAGIFGAGTTLTVL
Completion: 1.7 S:B

Prompt: Record: Antibody of light chain D3 (D3chicken) paired with the heavy chain against IGSF8 (antibody, V domains shown, also called HC-IGSF8) VH: AVTLDESGGGLQTPGGGLSLVCKASGFSISSYEMQWVRQAPGKGLEWVAGIDDDGSSRAYAPAVKGRATISRDNGQSTVRLQLNNLRAEDTGTYYCAKTIYAATLNAGEIDAWGHGTEVIVSS VL: ALTQPSSVSANPGETVKITCSGDDRWYGWYQQKSPGSAPVTLIYSNDKRPSDIPSRFSGSKSGSTGTLTITGVQADDEAVYFCGSRDSSYAGIFGAGTTLTVL
Completion: 19.4 S:B
